Data origin, for the record: the supplement of paper PMC10065799

Record form. Attribute: phosphorylation enrichment. Fill in for each entry.
Target: FGFR1 (UniProt P11362)
Sequence (P11362 whole entry, looked up): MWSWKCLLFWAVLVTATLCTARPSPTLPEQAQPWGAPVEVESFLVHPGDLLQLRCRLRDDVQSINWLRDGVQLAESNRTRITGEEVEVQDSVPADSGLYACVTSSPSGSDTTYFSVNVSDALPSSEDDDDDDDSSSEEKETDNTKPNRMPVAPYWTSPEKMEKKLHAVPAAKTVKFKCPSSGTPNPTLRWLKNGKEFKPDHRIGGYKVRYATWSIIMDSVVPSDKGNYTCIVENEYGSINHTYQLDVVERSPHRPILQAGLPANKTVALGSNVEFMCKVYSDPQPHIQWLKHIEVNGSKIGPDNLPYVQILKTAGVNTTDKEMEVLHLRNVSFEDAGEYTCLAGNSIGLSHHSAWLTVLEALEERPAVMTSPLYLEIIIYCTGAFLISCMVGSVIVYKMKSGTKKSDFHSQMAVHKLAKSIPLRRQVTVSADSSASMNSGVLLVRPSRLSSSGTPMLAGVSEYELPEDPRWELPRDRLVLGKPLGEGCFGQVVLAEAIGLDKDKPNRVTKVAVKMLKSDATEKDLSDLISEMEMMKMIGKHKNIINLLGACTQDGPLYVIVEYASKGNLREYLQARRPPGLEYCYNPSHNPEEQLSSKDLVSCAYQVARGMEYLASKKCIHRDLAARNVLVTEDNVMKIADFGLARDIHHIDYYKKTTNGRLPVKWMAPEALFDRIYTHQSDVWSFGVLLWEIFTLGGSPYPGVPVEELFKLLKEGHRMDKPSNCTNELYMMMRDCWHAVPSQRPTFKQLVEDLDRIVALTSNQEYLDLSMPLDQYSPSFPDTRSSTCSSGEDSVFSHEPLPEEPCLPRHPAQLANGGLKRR
Assay: phosphorylation enrichment, bacterial display (enrichment ratio); higher = better substrate or ligand; peptides without Tyr show the background;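 also: 11-residue human phosphosite peptides and single-mutation variants displayed on the E. coli surface, counted by deep sequencing, each peptide's frequency after selection divided by its frequency in the unselected input library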;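 also: frequency after pTyr selection over input frequency; kinase dosed for 20-30% of maximal phosphorylation in three min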
I'd appreciate a reply containing only the number, no unit.

Challenge: Using FGFR1 (UniProt P11362) as the test system, report measured phosphorylation enrichment of SRGSSYNSIPK [FLNC_Y2625_S2626N] .
Response given: 0.33

Challenge: Using FGFR1 (UniProt P11362) as the test system, report measured phosphorylation enrichment of GEEIKYMLWLL [OTC_Y55_S60L] .
Response given: 0.752

Challenge: Using FGFR1 (UniProt P11362) as the test system, report measured phosphorylation enrichment of PMDGEYFTLQI [TP53_Y327_L323M] .
Response given: 12

----------
Tested on: AncSZ
Assay: phosphorylation enrichment, bacterial display (enrichment ratio); higher = better substrate or ligand; peptides without Tyr show the background
value kind: phosphorylation enrichment

Challenge: Output phosphorylation enrichment of YKIYLYTLNDN [FN1_Y1975]
Response given: 1.34

Challenge: Output phosphorylation enrichment of AELKLYSGAQT [ZAP70_Y178_R175L]
Response given: 0.877

Challenge: Output phosphorylation enrichment of LSEEKYELKEG [TREM1_Y29_T25S]
Response given: 1.54

Challenge: Output phosphorylation enrichment of GEDEPYAEPYA [APBA1_Y183_S184A]
Response given: 1.59

Challenge: Output phosphorylation enrichment of KLADIYQAELR [GFAP_Y116_V115I]
Response given: 0.789

Challenge: Output phosphorylation enrichment of SYCYRYCCAAR [SUMF1_Y344_R345C]
Response given: 0.968

Challenge: Output phosphorylation enrichment of EQLLDYTRTVQ [INPP5E_Y439_R435Q]
Response given: 0.969

Challenge: Output phosphorylation enrichment of TPRNTYKMTSL [MKI67_Y849]
Response given: 0.477

Challenge: Output phosphorylation enrichment of ARSHIYTLASC [MEFV_Y741_F743L]
Response given: 1.05

Challenge: Output phosphorylation enrichment of RALRHYFKLNI [ETV6_Y401_YF]
Response given: 0.725

Challenge: Output phosphorylation enrichment of YRIGPYQPSVP [MATR3_Y784_N787S]
Response given: 0.55

Challenge: Output phosphorylation enrichment of GLALRCLSDHS [VWF_Y1584_Y1584C]
Response given: 0.86

Challenge: Output phosphorylation enrichment of FSKTQYNQVPR [CXADR_Y318_S323R_YF]
Response given: 0.482

Challenge: Output phosphorylation enrichment of IVLEKYKLLPE [DHFR_Y157_D153V]
Response given: 0.843

Challenge: Output phosphorylation enrichment of GFCSWYRGWAP [TIMP3_Y195_YF]
Response given: 1.27

Challenge: Output phosphorylation enrichment of TLSGIYQFNIA [FOXL2_Y81_I84N_YF]
Response given: 0.891

Challenge: Output phosphorylation enrichment of WFPANYVKLLN [ITSN1_Y1132_S1137N]
Response given: 1.06

Challenge: Output phosphorylation enrichment of FARECYSALPQ [SARS2_Y52_G51C_YF]
Response given: 1.66

Challenge: Output phosphorylation enrichment of QNVADYMRFLM [RPL5_Y207_YF]
Response given: 1.73

Challenge: Output phosphorylation enrichment of QLDQRYLLVPE [DDX49_Y223]
Response given: 1.12

Challenge: Output phosphorylation enrichment of ISDNACQYMLT [MYH7_Y162_Y162C]
Response given: 1

Challenge: Output phosphorylation enrichment of ERRLIYTSDPK [VPS13D_Y864]
Response given: 0.563
